Molecular target: hNav1.7 channels (Homo sapiens, UniProt Q15858)
Sequence (Q15858 whole entry): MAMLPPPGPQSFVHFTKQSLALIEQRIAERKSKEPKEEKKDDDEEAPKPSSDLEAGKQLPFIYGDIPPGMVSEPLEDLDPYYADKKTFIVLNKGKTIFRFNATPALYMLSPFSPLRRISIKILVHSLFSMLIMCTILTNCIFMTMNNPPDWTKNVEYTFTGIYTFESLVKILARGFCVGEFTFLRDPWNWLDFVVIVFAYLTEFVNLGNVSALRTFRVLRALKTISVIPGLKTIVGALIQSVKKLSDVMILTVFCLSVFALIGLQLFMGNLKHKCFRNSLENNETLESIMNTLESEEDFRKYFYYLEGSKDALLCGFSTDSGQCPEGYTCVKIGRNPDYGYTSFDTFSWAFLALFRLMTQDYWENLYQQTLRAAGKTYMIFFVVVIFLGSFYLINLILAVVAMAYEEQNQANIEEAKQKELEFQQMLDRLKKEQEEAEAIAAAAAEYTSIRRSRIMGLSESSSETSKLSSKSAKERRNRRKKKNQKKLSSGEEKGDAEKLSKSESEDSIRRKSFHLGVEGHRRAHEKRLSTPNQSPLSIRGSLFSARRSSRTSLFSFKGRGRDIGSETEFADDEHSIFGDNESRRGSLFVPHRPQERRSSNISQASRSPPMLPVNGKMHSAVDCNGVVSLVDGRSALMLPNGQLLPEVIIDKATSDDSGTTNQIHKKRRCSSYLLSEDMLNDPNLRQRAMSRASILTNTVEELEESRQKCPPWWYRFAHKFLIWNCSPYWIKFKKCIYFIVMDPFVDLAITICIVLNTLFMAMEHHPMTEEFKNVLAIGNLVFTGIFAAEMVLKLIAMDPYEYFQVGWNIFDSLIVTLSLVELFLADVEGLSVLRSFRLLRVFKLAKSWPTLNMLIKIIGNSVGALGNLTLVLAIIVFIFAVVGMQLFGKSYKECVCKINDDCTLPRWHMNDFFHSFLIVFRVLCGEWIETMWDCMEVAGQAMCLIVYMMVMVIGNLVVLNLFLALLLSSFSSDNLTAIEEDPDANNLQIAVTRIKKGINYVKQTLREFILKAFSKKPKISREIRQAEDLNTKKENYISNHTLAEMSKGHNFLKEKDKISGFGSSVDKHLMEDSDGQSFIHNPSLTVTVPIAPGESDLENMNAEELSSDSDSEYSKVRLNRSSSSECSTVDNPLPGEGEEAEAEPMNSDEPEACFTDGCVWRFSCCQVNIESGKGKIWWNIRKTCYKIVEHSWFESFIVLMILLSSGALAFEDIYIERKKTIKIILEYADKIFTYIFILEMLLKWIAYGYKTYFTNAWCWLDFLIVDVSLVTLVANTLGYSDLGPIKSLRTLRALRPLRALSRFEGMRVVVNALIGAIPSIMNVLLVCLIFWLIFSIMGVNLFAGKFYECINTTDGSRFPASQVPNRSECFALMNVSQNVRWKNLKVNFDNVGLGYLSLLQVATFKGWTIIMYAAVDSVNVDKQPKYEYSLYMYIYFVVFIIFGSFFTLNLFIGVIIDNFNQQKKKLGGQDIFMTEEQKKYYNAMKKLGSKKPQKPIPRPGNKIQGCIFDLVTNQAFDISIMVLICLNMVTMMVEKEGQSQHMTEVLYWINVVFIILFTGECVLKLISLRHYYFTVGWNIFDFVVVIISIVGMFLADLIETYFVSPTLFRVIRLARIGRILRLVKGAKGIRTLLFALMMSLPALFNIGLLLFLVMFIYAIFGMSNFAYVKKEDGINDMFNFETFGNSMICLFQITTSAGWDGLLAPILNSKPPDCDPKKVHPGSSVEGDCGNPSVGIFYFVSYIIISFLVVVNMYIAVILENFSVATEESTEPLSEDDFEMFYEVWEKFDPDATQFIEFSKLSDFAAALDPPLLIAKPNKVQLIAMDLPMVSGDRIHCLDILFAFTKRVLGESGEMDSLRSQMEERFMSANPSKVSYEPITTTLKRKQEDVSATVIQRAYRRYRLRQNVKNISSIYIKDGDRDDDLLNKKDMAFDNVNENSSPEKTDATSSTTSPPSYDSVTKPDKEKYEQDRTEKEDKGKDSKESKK
Assay: hNav1.7 channel in vitro patch-clamp assay
Settings: stable HEK293 cell line expressing hNav1.7; whole cell patch-clamp (QPatch HTX and/or conventional), room temperature; voltage protocol not given
pIC50: −log10 of the molar value.
observed_property: pIC50

Worked cases, answers included:
compound	target_desc	number
CC(C)COc1ncc(N2C(=O)C3(CC3)c3cc4c(NS(=O)(=O)c5ccccc5)noc4cc32)cc1Cl [Example 6]	hNav1.7 channels (Homo sapiens, UniProt Q15858)	5.52
Cc1nn(-c2ccc(Cl)c(Cl)c2)c2cc3onc(NS(=O)(=O)C4CC4)c3cc12 [Example 46]	hNav1.7 channels (Homo sapiens, UniProt Q15858)	7.00
CC1CCC(COc2ncc(N3C(=O)C4(CC4)c4cc5c(NS(=O)(=O)C6CC6)noc5cc43)cc2Cl)CC1 (stereo not shown) [Example 23]	hNav1.7 channels (Homo sapiens, UniProt Q15858)	6.70
CS(=O)(=O)Nc1noc2cc3c(cc12)C1(CC1)C(=O)N3c1cnc(OCC2CCC(C(F)(F)F)CC2)c(Cl)c1 (stereo not shown) [Example 14]	hNav1.7 channels (Homo sapiens, UniProt Q15858)	6.70

(A) O=C1N(c2cnc(OCC3CC3)c(Cl)c2)c2cc3onc(NS(=O)(=O)C4CC4)c3cc2C12CC2 [Example 28]
(B) O=C1N(c2cnc(OCC3CCCC3)c(Cl)c2)c2cc3onc(NS(=O)(=O)C4CC4)c3cc2C12CC2 [Example 27]
(C) Cc1nn(-c2cnc(OCC(C)C)c(Cl)c2)c2cc3onc(NS(=O)(=O)C4CC4)c3cc12 [Example 45]
QUERY: Please list these in order of increasing pIC50. Thank you! Please express your ranking as an ordered list of the labels.
RESULT: A, B, C
(A: 6.70, B: 7.05, C: 7.52)

###

Molecular target: hNav1.7 channels (Homo sapiens)
Test: hNav1.7 channel in vitro patch-clamp assay
Conditions: stable HEK293 cell line expressing hNav1.7; whole cell patch-clamp (QPatch HTX and/or conventional), room temperature; voltage protocol not given
observed_property: IC50 (nM)

CC(C)COc1ncc(N2C(=O)C3(CC3)Oc3cc4c(NS(=O)(=O)C5CC5)noc4cc32)cc1Cl 100

(A) CC(C)COc1ncc(N2C(=O)C3(CC3)c3cc4c(NS(=O)(=O)C5CC5)noc4cc32)cc1Cl
(B) CC(C)COc1ncc(-n2cc(C(N)=O)c3cc4c(NS(=O)(=O)C5CC5)noc4cc32)cc1Cl
(C) CC(C)COc1ncc(-n2cc(C#N)c3cc4c(NS(=O)(=O)C5CC5)noc4cc32)cc1Cl
QUERY: Order the 3 compounds from highest to lowest IC50. Please express your ranking as an ordered list of the labels.
RESULT: B, C, A

(1) CC(C)COc1ncc(N2C(=O)C3(CC3)c3cc4c(NS(=O)(=O)C(F)(F)F)noc4cc32)cc1Cl
(2) CC(C)COc1ncc(N2C(=O)C3(CC3)c3cc4c(NS(=O)(=O)C(C)C)noc4cc32)cc1Cl
QUERY: Lowest IC50? choose 1 or 2 Answer with the label corresponding to your selection.
RESULT: 2

###

Molecular target: hNav1.7 channels (Homo sapiens, UniProt Q15858)
Assay: hNav1.7 channel in vitro patch-clamp assay
Conditions: stable HEK293 cell line expressing hNav1.7; whole cell patch-clamp (QPatch HTX and/or conventional), room temperature; voltage protocol not given
observed_property: IC50 (nM)

compound	IC50, nM
CC(C)COc1ncc(-c2nccc3cc4c(NS(=O)(=O)N(C)C)noc4cc23)cc1Cl [Example 53]	1070
O=C1N(c2cnc(OCC3CCC3)c(Cl)c2)c2cc3onc(NS(=O)(=O)C4CC4)c3cc2C12CC2 [Example 25]	80
O=S(=O)(Nc1noc2cc3c(-c4ccc(Cl)c(Cl)c4)nccc3cc12)C1CC1 [Example 52]	800
O=C1N(c2cnc(OC3CC(F)(F)C3)c(Cl)c2)c2cc3onc(NS(=O)(=O)C4CC4)c3cc2C12CC2 [Example 19]	200
CC1(COc2ncc(N3C(=O)C4(CC4)c4cc5c(NS(C)(=O)=O)noc5cc43)cc2Cl)CC1 [Example 15]	70

(P) CC(C)COc1ncc(N2C(=O)C3(CCCC3)c3cc4c(NS(=O)(=O)C5CC5)noc4cc32)cc1Cl [Example 38]
(Q) CCC(C)Oc1ncc(N2C(=O)C3(CC3)c3cc4c(NS(=O)(=O)C5CC5)noc4cc32)cc1Cl (stereo not shown) [Example 24]
QUERY: From the recorded data, which exceeds the other in IC50: P or Q ? Answer with the label corresponding to your selection.
RESULT: P

###

Target: hNav1.7 channels (Homo sapiens, UniProt Q15858)
Experiment: hNav1.7 channel in vitro patch-clamp assay
Details: stable HEK293 cell line expressing hNav1.7; whole cell patch-clamp (QPatch HTX and/or conventional), room temperature; voltage protocol not given
observed_property: IC50 (nM)

Worked cases, answers included:
compound	observed_property	result_units	number
CCS(=O)(=O)Nc1noc2cc3c(cc12)C1(CC1)C(=O)N3c1cnc(OCC(C)C)c(Cl)c1	IC50	nM	100
O=C1N(c2cnc(OC(F)F)c(Cl)c2)c2cc3onc(NS(=O)(=O)C4CC4)c3cc2C12CC2	IC50	nM	630
CS(=O)(=O)Nc1noc2cc3c(cc12)C1(CC1)C(=O)N3c1cnc(OCC2CCCCC2)c(Cl)c1	IC50	nM	100
CC(C)COc1ncc(-n2c(C(F)(F)F)cc3cc4c(NS(C)(=O)=O)noc4cc32)cc1Cl [Example 40b]	IC50	nM	40
CC1(COc2ncc(N3C(=O)C4(CC4)c4cc5c(NS(=O)(=O)C6CC6)noc5cc43)cc2Cl)CC1	IC50	nM	60

(1) CC(C)COc1ncc(N2C(=O)C3(CC3)c3cc4c(NS(=O)(=O)N(C)C)noc4cc32)cc1Cl
(2) C[C@H](Oc1ncc(N2C(=O)C3(CC3)c3cc4c(NS(=O)(=O)C5CC5)noc4cc32)cc1Cl)c1ccc(F)cc1
QUERY: From the recorded data, which exceeds the other in IC50: 1 or 2 ? Answer with the label corresponding to your selection.
RESULT: 1
(1: 1230 nM, 2: 100 nM)

###

Biological target: hNav1.7 channels (Homo sapiens, UniProt Q15858)
Construct: host or cells: HEK293
Assay: hNav1.7 channel in vitro patch-clamp assay
Format: cell-based
Conditions: stable HEK293 cell line expressing hNav1.7; whole cell patch-clamp (QPatch HTX and/or conventional), room temperature; voltage protocol not given
observed_property: IC50 (nM)

COc1ncc(N2C(=O)C3(CC3)c3cc4c(NS(=O)(=O)C5CC5)noc4cc32)cc1Cl 800
O=C1N(c2cnc(OC3CCC3)c(Cl)c2)c2cc3onc(NS(=O)(=O)C4CC4)c3cc2C12CC2 150
CC(C)COc1ncc(-c2nn(C)c3cc4c(NS(=O)(=O)C5CC5)noc4cc23)cc1Cl 400
CC(C)COc1ncc(-n2c(=O)n(C)c3cc4c(NS(=O)(=O)C5CC5)noc4cc32)cc1Cl 100
CC(C)COc1ncc(N2CCOc3cc4c(NS(C)(=O)=O)noc4cc32)cc1Cl 530

(1) CC(C)COc1ncc(N2C(=O)C3(CC3)c3cc4c(NS(=O)(=O)C5CC5)noc4cc32)cc1F
(2) CC(C)COc1ncc(N2C(=O)C3(CCCCC3)c3cc4c(NS(=O)(=O)C5CC5)noc4cc32)cc1Cl
QUERY: Lowest IC50? choose 1 or 2 Answer with the label corresponding to your selection.
RESULT: 1

###

Target: hNav1.7 channels (Homo sapiens, UniProt Q15858)
Assay: hNav1.7 channel in vitro patch-clamp assay
Conditions: stable HEK293 cell line expressing hNav1.7; whole cell patch-clamp (QPatch HTX and/or conventional), room temperature; voltage protocol not given
observed_property: IC50 (nM)

Worked cases, answers included:
CC(C)COc1ncc(N2C(=O)C(C)(C)c3cc4c(NS(=O)(=O)C5CC5)noc4cc32)cc1Cl 70
Cc1nn(-c2cnc(OCC(C)C)c(Cl)c2)c2cc3onc(NS(C)(=O)=O)c3cc12 100
CC(C)COc1ncc(N2C(=O)C3(CC3)c3cc4c(NS(N)(=O)=O)noc4cc32)cc1Cl 2000
CC(C)COc1ncc(-n2c(C(F)(F)F)nc3cc4c(NS(=O)(=O)C5CC5)noc4cc32)cc1Cl 100
CC(C)COc1c(Cl)cc(N2C(=O)C3(CC3)c3cc4c(NS(C)(=O)=O)noc4cc32)cc1C#N 900

(A) CC(C)COc1ncc(-c2nccc3cc4c(NS(C)(=O)=O)noc4cc23)cc1Cl
(B) O=C1N(c2cnc(OCC(F)(F)F)c(Cl)c2)c2cc3onc(NS(=O)(=O)C4CC4)c3cc2C12CC2
QUERY: Lowest IC50? choose A or B Answer with the label corresponding to your selection.
RESULT: A
(A: 300 nM, B: 500 nM)

(a) CC(C)COc1ncc(-n2c(=O)n(C)c3cc4c(NS(C)(=O)=O)noc4cc32)cc1Cl
(b) CC(C)COc1ncc(N2C(=O)C3(CC3)c3cc4c(NS(=O)(=O)N5CCCC5)noc4cc32)cc1Cl
(c) CC(C)COc1ncc(N2C(=O)C3(CCC3)c3cc4c(NS(=O)(=O)C5CC5)noc4cc32)cc1Cl
(d) CC(C)COc1ncc(-c2ccnc3cc4c(NS(=O)(=O)C5CC5)noc4cc23)cc1Cl
(e) CS(=O)(=O)Nc1noc2cc3c(cc12)C1(CC1)C(=O)N3c1cnc(OCC2CCC(F)(F)CC2)c(Cl)c1
QUERY: Order the 5 compounds from highest to lowest IC50. Please express your ranking as an ordered list of the labels.
RESULT: d, b, e, a, c
(d: 850 nM, b: 500 nM, e: 300 nM, a: 100 nM, c: 40 nM)

(P) O=C1N(c2cnc(OCCCC(F)(F)F)c(Cl)c2)c2cc3onc(NS(=O)(=O)C4CC4)c3cc2C12CC2
(Q) CS(=O)(=O)Nc1noc2cc3c(cc12)C1(CC1)C(=O)N3c1ccc(Cl)c(Cl)c1
QUERY: From the recorded data, which exceeds the other in IC50: P or Q ? Answer with the label corresponding to your selection.
RESULT: Q

(A) CC(C)COc1ncc(-c2cccc3cc4c(NS(=O)(=O)C5CC5)noc4cc23)cc1Cl
(B) CC(C)COc1c(F)cc(N2C(=O)C3(CC3)c3cc4c(NS(=O)(=O)C5CC5)noc4cc32)cc1Cl
QUERY: Lowest IC50? choose A or B Answer with the label corresponding to your selection.
RESULT: A

(A) CC(C)COc1ncc(-c2cncc3cc4c(NS(C)(=O)=O)noc4cc23)cc1Cl
(B) O=C1N(c2cnc(OC3CCCCC3)c(Cl)c2)c2cc3onc(NS(=O)(=O)C4CC4)c3cc2C12CC2
QUERY: From the recorded data, which exceeds the other in IC50: A or B ? Answer with the label corresponding to your selection.
RESULT: A
(A: 2360 nM, B: 110 nM)

(I) CS(=O)(=O)Nc1noc2cc3c(cc12)C1(CC1)C(=O)N3c1cnc(OCC2CCOCC2)c(Cl)c1
(II) CC(C)COc1ncc(N2C(=O)C3(CC3)c3cc4c(NS(=O)(=O)c5cccs5)noc4cc32)cc1Cl
(III) CC(C)COc1ncc(-n2cc(C(F)(F)F)c3cc4c(NS(=O)(=O)C5CC5)noc4cc32)cc1Cl
(IV) CC(C)COc1ncc(-c2nccc3cc4c(NS(=O)(=O)C5CC5)noc4cc23)cc1Cl
QUERY: Please list these in order of increasing IC50. Thank you! Please express your ranking as an ordered list of the labels.
RESULT: III, IV, II, I

(1) Cc1cn(-c2cnc(OCC(C)C)c(Cl)c2)c2cc3onc(NS(=O)(=O)C4CC4)c3cc12
(2) CC(C)COc1ncc(N2C(=O)C3(CC3)c3cc4c(NS(C)(=O)=O)noc4cc32)cc1Cl
QUERY: Lowest IC50? choose 1 or 2 Answer with the label corresponding to your selection.
RESULT: 1
(1: 70 nM, 2: 150 nM)
